Source: patent US20150307520A1

biological target: p110γ (Homo sapiens, UniProt P48736); test: Transcreener KINASE Assay, kinase inhibition of p110γ; format: biochemical; conditions: 1 uM test compound
Sequence (P48736 whole entry): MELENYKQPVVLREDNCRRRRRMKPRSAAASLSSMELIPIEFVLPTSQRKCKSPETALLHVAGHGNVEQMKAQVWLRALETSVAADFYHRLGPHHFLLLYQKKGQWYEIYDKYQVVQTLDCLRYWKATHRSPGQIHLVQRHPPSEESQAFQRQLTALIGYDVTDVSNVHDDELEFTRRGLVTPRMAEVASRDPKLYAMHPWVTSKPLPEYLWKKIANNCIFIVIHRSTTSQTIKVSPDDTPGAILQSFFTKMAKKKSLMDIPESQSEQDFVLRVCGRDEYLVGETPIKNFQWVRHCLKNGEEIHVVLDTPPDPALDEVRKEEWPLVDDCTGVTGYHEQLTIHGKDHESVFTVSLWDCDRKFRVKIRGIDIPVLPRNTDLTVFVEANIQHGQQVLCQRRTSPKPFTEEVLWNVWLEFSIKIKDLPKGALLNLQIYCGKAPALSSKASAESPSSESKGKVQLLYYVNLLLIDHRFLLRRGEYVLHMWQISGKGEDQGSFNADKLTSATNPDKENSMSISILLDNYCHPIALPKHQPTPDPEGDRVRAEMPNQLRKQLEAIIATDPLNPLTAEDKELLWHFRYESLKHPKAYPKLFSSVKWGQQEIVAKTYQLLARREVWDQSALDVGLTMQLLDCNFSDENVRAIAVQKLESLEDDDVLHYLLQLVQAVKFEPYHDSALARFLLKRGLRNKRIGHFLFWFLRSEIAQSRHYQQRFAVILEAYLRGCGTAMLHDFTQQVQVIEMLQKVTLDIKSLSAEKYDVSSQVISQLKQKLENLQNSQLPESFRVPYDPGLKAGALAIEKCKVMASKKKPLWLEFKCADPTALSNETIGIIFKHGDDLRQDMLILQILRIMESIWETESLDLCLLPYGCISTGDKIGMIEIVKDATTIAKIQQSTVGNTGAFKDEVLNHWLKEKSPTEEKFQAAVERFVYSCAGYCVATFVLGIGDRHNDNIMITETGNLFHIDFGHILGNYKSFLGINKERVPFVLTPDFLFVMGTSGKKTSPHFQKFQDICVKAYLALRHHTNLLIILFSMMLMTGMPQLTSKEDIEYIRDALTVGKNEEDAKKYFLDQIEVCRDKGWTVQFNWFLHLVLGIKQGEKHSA
Note to self: values exactly at 90% are Met. So PI3Kγ IH % @ 1 uM at or above 90% is Met, below is Not met.

# SMILES_DATA, ASSIGNED_CLASS
measured = [
    ("O=c1c2c(Cl)ccn2nc([C@@H]2CCCN2c2ncnc3[nH]nnc23)n1-c1ccccc1", "Not met"),
    ("CC(=O)c1cnc(N)nc1N1CC[C@H]1c1nn2ccc(Cl)c2c(=O)n1-c1cc(F)cc(F)c1", "Met"),
    ("CC(=O)c1cnc(N)nc1N1C[C@H](C)[C@H]1c1nn2ccc(Cl)c2c(=O)n1-c1ccc(F)cc1", "Met"),
    ("O=c1c2c(Cl)ccn2nc([C@@H]2CCCN2c2ncnc3[nH]cnc23)n1-c1cccc(F)c1", "Met"),
    ("Nc1ncnc(N2CC[C@H]2c2nn3ccc(Cl)c3c(=O)n2-c2ccccc2)c1Cl", "Not met"),
]
